# Tested on: SH-SY5Y
# test-method-notes: Neuroprotective activity in human SH-SY5Y cells assessed as protection against H2O2-induced oxidative stress at 3 uM incubated for 1 hr prior to H2O2-challenge measured after 12 hrs by MTT assay
# Type: functional
Listed here: items and their measured Activity.
readout-label: Activity (%)

>  <smiles-input>
CC(=O)SCCC(=O)NCCCCCCNc1c2c(nc3cc(Cl)ccc13)CCCC2

>  <target>
SH-SY5Y

>  <unit-descriptor>
%

>  <readout-value>
17.1

$$$$
>  <smiles-input>
O=C(CCS)NCCCNc1c2c(nc3ccccc13)CCCC2

>  <target>
SH-SY5Y

>  <unit-descriptor>
%

>  <readout-value>
22

$$$$
>  <smiles-input>
CC(=O)SCCC(=O)NCCCCNc1c2c(nc3ccccc13)CCCC2

>  <target>
SH-SY5Y

>  <unit-descriptor>
%

>  <readout-value>
30.1

$$$$
>  <smiles-input>
O=C(CCS)NCCCCCCNc1c2c(nc3cc(Cl)ccc13)CCCC2

>  <target>
SH-SY5Y

>  <unit-descriptor>
%

>  <readout-value>
27.2

$$$$
>  <smiles-input>
O=C(CCS)NCCCCNc1c2c(nc3ccccc13)CCCC2

>  <target>
SH-SY5Y

>  <unit-descriptor>
%

>  <readout-value>
5.8

$$$$
>  <smiles-input>
CC(=O)SCCC(=O)NCCCNc1c2c(nc3ccccc13)CCCC2

>  <target>
SH-SY5Y

>  <unit-descriptor>
%

>  <readout-value>
35.9

$$$$

----------
# Tested on: SH-SY5Y
# test-method-notes: Neuroprotective activity in human SH-SY5Y cells assessed as protection against H2O2-induced oxidative stress at 1 uM incubated for 1 hr prior to H2O2-challenge measured after 12 hrs by MTT assay
# Type: functional

>  <smiles-input>
O=C(CCS)NCCCNc1c2c(nc3ccccc13)CCCC2

>  <target>
SH-SY5Y

>  <unit-descriptor>
%

>  <Activity>
45.9

$$$$
>  <smiles-input>
CC(=O)SCCC(=O)NCCCCNc1c2c(nc3ccccc13)CCCC2

>  <target>
SH-SY5Y

>  <unit-descriptor>
%

>  <Activity>
21.7

$$$$
>  <smiles-input>
O=C(CCS)NCCCCCCNc1c2c(nc3cc(Cl)ccc13)CCCC2

>  <target>
SH-SY5Y

>  <unit-descriptor>
%

>  <Activity>
52.3

$$$$
>  <smiles-input>
CC(=O)SCCC(=O)NCCCCCCNc1c2c(nc3cc(Cl)ccc13)CCCC2

>  <target>
SH-SY5Y

>  <unit-descriptor>
%

>  <Activity>
8.1

$$$$
>  <smiles-input>
O=C(CCS)NCCCCNc1c2c(nc3ccccc13)CCCC2

>  <target>
SH-SY5Y

>  <unit-descriptor>
%

>  <Activity>
23.8

$$$$
>  <smiles-input>
CC(=O)SCCC(=O)NCCCNc1c2c(nc3ccccc13)CCCC2

>  <target>
SH-SY5Y

>  <unit-descriptor>
%

>  <Activity>
32.4

$$$$

----------
Listed here: items and their measured log10 of IC50.
# target: Acetylcholinesterase (Electrophorus electricus, UniProt O42275)
# Sequence (O42275 whole entry): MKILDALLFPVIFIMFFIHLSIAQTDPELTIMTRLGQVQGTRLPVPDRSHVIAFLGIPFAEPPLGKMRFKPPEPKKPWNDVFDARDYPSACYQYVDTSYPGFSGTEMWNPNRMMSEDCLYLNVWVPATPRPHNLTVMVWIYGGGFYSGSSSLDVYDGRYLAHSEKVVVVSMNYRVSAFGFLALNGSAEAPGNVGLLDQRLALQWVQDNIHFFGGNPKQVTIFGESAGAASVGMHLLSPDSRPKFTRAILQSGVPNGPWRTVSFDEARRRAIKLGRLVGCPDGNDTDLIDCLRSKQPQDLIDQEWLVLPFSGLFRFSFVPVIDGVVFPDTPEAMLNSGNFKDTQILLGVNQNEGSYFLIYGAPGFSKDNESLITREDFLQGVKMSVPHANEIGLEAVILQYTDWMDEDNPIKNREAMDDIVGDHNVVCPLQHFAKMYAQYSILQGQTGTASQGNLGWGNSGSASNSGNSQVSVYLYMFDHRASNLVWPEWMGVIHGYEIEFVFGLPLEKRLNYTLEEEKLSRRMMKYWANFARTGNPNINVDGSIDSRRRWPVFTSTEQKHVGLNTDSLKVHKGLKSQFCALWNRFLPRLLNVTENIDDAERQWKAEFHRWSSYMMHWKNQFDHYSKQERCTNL
readout-label: log10 of IC50 (log10 of the value in µM)

>  <smiles-input>
CC(=O)SCCC(=O)NCCCCNc1c2c(nc3ccccc13)CCCC2

>  <target>
Acetylcholinesterase (Electrophorus electricus, UniProt O42275)

>  <log10 of IC50>
0.86

$$$$
>  <smiles-input>
O=C(CCS)NCCCCCCNc1c2c(nc3cc(Cl)ccc13)CCCC2

>  <target>
Acetylcholinesterase (Electrophorus electricus, UniProt O42275)

>  <log10 of IC50>
-0.75

$$$$
>  <smiles-input>
CC(=O)SCCC(=O)NCCCCCCNc1c2c(nc3cc(Cl)ccc13)CCCC2

>  <target>
Acetylcholinesterase (Electrophorus electricus, UniProt O42275)

>  <log10 of IC50>
-1.37

$$$$
>  <smiles-input>
CC(=O)SCCC(=O)NCCCNc1c2c(nc3ccccc13)CCCC2

>  <target>
Acetylcholinesterase (Electrophorus electricus, UniProt O42275)

>  <log10 of IC50>
0.24

$$$$
>  <smiles-input>
O=C(CCS)NCCCCNc1c2c(nc3ccccc13)CCCC2

>  <target>
Acetylcholinesterase (Electrophorus electricus, UniProt O42275)

>  <log10 of IC50>
0.92

$$$$
>  <smiles-input>
O=C(CCS)NCCCNc1c2c(nc3ccccc13)CCCC2

>  <target>
Acetylcholinesterase (Electrophorus electricus, UniProt O42275)

>  <log10 of IC50>
0.78

$$$$
